# Assay Details: caspase-8 TRAIL sensitization, hit retest, confirmation, cell-based, NB7+caspase-8, with/without TRAIL, luminescence panel (AID 651596)
# Setup Conditions: NB7 neuroblastoma + caspase-8, without TRAIL, luminescence viability, without TRAIL, mean of runs, at 10 µM
Hi! Could you tag entries with activity below 70% as yes (1), and those at or above as no (0)? Much appreciated.

Record excerpt, results attached:
1. COc1ccc2c(=O)cc(-c3ccccc3)n(C)c2c1 ... yes (1)
2. CNC(=S)N1N=C(c2ccccc2)CC1c1ccc(Br)cc1 (configuration not stated) ... yes (1)
3. Cc1cccc(CS(=O)(=O)c2ncc(Cl)c(C(=O)Nc3nnc(C(C)C)s3)n2)c1 ... no (0)
4. O=C(Nc1ccc2ccccc2c1)c1ccc(Cl)cc1 ... yes (1)
5. CCOC(=O)c1cc2c(C)n(-c3ccc(C)cc3)c(C)c2ccc1=O ... yes (1)

Now look at this one.
**Query** Hi there! Is activity for Cc1ccccc1C(=O)Nc1nnc(SCC(=O)NCc2ccco2)s1 below 70%, do you know?
**Result** yes (1)
